Documented LC retention time across a set of compounds
Test: RP, Phenomenex Kinetex C18, 150 × 2.1 mm, 1.7 µm, 30 °C, 0.3 mL/min, estimated dead time 1.1 min; A: water + 0.1% formic acid, pH 3; B: acetonitrile + 0.1% formic acid, pH 3; gradient (min/%B) 0/2 14/100 17/100 17.1/2 25/2
Conditions: stereoisomer not certain
Number in min, nothing else.

CC(C=CC1=C(C)CCCC1(C)C)=CC=CC(C)=CC(=O)[O-] [RETINOATE] | 8.2

Data request: Suppose we examine the compound CSCC1OC(n2cnc3c(N)ncnc32)C(O)C1O (stereo not given) ; what LC retention time value has been reported?
Data returned: 3.82

Data request: Suppose we examine the compound `Cc1ccc(O)c(O)c1` ; what LC retention time value has been reported?
Data returned: 3.31

Data request: Suppose we examine the compound CC(=O)NC(Cc1c[nH]c2ccccc12)C(=O)O (stereo not given) ; what LC retention time value has been reported?
Data returned: 5.82

###

Assay: RP, Phenomenex Kinetex C18, 150 × 2.1 mm, 1.7 µm, 30 °C, 0.3 mL/min, estimated dead time 1.1 min; A: water + 0.1% formic acid, pH 3; B: acetonitrile + 0.1% formic acid, pH 3; gradient (min/%B) 0/2 14/100 17/100 17.1/2 25/2
Conditions: stereoisomer not certain
Quantity Name: LC retention time (min)
Number in min, nothing else.

CSCC[C@H](NC=O)C(=O)O [N-FORMYL-L-METHIONINE] | 3.93
CC(=O)c1ccc(O)cc1O [2',4'-DIHYDROXYACETOPHENONE] | 6.45
CC(=O)NC(Cc1ccccc1)C(=O)O (stereo not given) [N-ACETYLPHENYLALANINE] | 5.64

Data request: Suppose we examine the molecule CC(CCC(=O)NCC(=O)O)C1CCC2C3C(O)CC4CC(O)CCC4(C)C3CC(O)C12C (stereo not given) [GLYCOCHOLATE] ; what LC retention time value has been reported?
Data returned: 8.13

Data request: Suppose we examine the molecule O=C(O)CCCCCCCCC(=O)O [SEBACATE] ; what LC retention time value has been reported?
Data returned: 7

###

Assay: HILIC, Waters ACQUITY UPLC BEH Amide, 150 × 2.1 mm, 1.7 µm, 40 °C, 0.5 mL/min, estimated dead time 0.66 min; A: 5% water + 95% acetonitrile; B: 70% water + 30% acetonitrile + 10 mM ammonium formate, pH 6.5; gradient (min/%B) 0/0 2/0 20/70 23/70 24/0 31/0
Conditions: stereoisomer not certain
Documented log10 of LC retention time across a set of molecules
Remember, log10 of LC retention time, in min.

Some molecules with known log10 of LC retention time results, for comparison:
O=c1[nH]c(=O)c2ncn(C3OC(CO)C(O)C3O)c2[nH]1 (centres undefined) [XANTHOSINE] | 0.86
NC(=O)NCCC(=O)O [UREIDOPROPIONATE] | 0.72

Data request: Suppose we examine the molecule OCC1OC(OC2C(CO)OC(O)C(O)C2O)C(O)C(O)C1O (centres undefined) [CELLOBIOSE] ; what log10 of LC retention time value has been reported?
Data returned: 1.04

Data request: Suppose we examine the molecule CC(CCC(=O)O)C1CCC2C3C(O)CC4CC(O)CCC4(C)C3CCC12C (centres undefined) [CHENODEOXYCHOLATE] ; what log10 of LC retention time value has been reported?
Data returned: 0.00

Data request: Suppose we examine the molecule NCCC[C@@H](N)C(=O)O [D-ORNITHINE] ; what log10 of LC retention time value has been reported?
Data returned: 1.16

Data request: Suppose we examine the molecule O=C(O)CCCCCCCCC(=O)O [SEBACATE] ; what log10 of LC retention time value has been reported?
Data returned: 0.05

Data request: Suppose we examine the molecule CNCCc1c[nH]c2ccccc12 [N-METHYLTRYPTAMINE] ; what log10 of LC retention time value has been reported?
Data returned: 0.82

###

Test: HILIC, Merck SeQuant ZIC-pHILIC, 150 × 2.1 mm, 5 µm, 40 °C, 0.3 mL/min, estimated dead time 1.1 min; A: acetonitrile; B: water + 2.8 mM ammonium formate, pH 9; gradient (min/%B) 0/5 1/5 10/51 13/51 13.1/5 20/5
Settings: stereoisomer not certain
So basically: is LC retention time under 9 min? Then true (1). Not under? Then false (0).

Data request: # TODO verify LC retention time < 9 min strictly for this molecule: O=c1ccn(C2CC(O)C(COP(=O)(O)OP(=O)(O)OP(=O)(O)O)O2)c(=O)[nH]1 (stereo not drawn) [DEOXYURIDINE TRIPHOSPHATE]
Data returned: false (0)

Data request: # TODO verify LC retention time < 9 min strictly for this molecule: Nc1ccn(C2OC(COP(=O)(O)OP(=O)(O)OP(=O)(O)O)C(O)C2O)c(=O)n1 (stereo not drawn) [CYTIDINE TRIPHOSPHATE]
Data returned: false (0)

Data request: # TODO verify LC retention time < 9 min strictly for this molecule: Nc1nc2nccnc2c(=O)[nH]1 [PTERIN]
Data returned: true (1)

###

Assay: RP, Phenomenex Kinetex C18, 150 × 2.1 mm, 1.7 µm, 30 °C, 0.3 mL/min, estimated dead time 1.1 min; A: water + 0.1% formic acid, pH 3; B: acetonitrile + 0.1% formic acid, pH 3; gradient (min/%B) 0/2 14/100 17/100 17.1/2 25/2
Settings: stereoisomer not certain
Documented LC retention time across a set of molecules
Number in min, nothing else.

Data request: Suppose we examine the molecule `N[C@@H](Cc1ccc(O)c([N+](=O)[O-])c1)C(=O)O` ; what LC retention time value has been reported?
Data returned: 3.56

Data request: Suppose we examine the molecule CCCCCCSCC(NC(=O)CCC(N)C(=O)O)C(=O)NCC(=O)O (stereo not given) ; what LC retention time value has been reported?
Data returned: 6.27

Data request: Suppose we examine the molecule NC(Cc1cc(I)c(Oc2cc(I)c(O)c(I)c2)c(I)c1)C(=O)O (stereo not given) ; what LC retention time value has been reported?
Data returned: 8.06

Data request: Suppose we examine the molecule `Cc1cc2nc[nH]c2cc1C` ; what LC retention time value has been reported?
Data returned: 4.83

Data request: Suppose we examine the molecule CC(=O)NC(CC(C)C)C(=O)O (stereo not given) ; what LC retention time value has been reported?
Data returned: 5.25

###

Assay: RP, Phenomenex Kinetex C18, 150 × 2.1 mm, 1.7 µm, 30 °C, 0.3 mL/min, estimated dead time 1.1 min; A: water + 0.1% formic acid, pH 3; B: acetonitrile + 0.1% formic acid, pH 3; gradient (min/%B) 0/2 14/100 17/100 17.1/2 25/2
Conditions: stereoisomer not certain
Documented LC retention time across a set of molecules
Kindly format the answer as number then unit.

CC1OC(n2cnc3c(N)ncnc32)C(O)C1O (stereo not given) | 3.24 min
Cn1cnc2c(ncn2C2OC(CO)C(O)C2O)c1=N (stereo not given) | 3.36 min
COc1cc(C(O)CO)ccc1O (stereo not given) [4-HYDROXY-3-METHOXYPHENYLGLYCOL] | 3.21 min

Data request: Suppose we examine the molecule Nc1ccn(C2CC(O)C(CO)O2)c(=O)n1 (stereo not given) ; what LC retention time value has been reported?
Data returned: 1.54 min

Data request: Suppose we examine the molecule O=C(O)CCCCCCCC(=O)O [AZELATE] ; what LC retention time value has been reported?
Data returned: 6.26 min

###

Documented LC retention time across a set of molecules
Test: HILIC, Waters ACQUITY UPLC BEH Amide, 150 × 2.1 mm, 1.7 µm, 40 °C, 0.5 mL/min, estimated dead time 0.66 min; A: 5% water + 95% acetonitrile; B: 70% water + 30% acetonitrile + 10 mM ammonium formate, pH 6.5; gradient (min/%B) 0/0 2/0 20/70 23/70 24/0 31/0
Details: stereoisomer not certain
Number in min, nothing else.

Some molecules with known LC retention time results, for comparison:
Cc1cc2nc3c(=O)[nH]c(=O)nc-3n(CC(O)C(O)C(O)CO)c2cc1C (stereo not given) | 6.01
O=C(O)Cc1ccccc1O [2-HYDROXYPHENYLACETATE] | 0.9
CN1CCCC1c1cccnc1 (stereo not given) | 2.9
CC(=O)c1ccc(O)cc1O [2',4'-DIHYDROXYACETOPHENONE] | 0.96
CC1NCCc2cc(O)c(O)cc21 (stereo not given) | 8.1

Data request: Suppose we examine the molecule CSCCC(O)C(=O)O (stereo not given) [2-HYDROXY-4-(METHYLTHIO)BUTANOATE] ; what LC retention time value has been reported?
Data returned: 1.29

Data request: Suppose we examine the molecule CCCCCC(=O)[O-] [HEXANOATE] ; what LC retention time value has been reported?
Data returned: 0.91

Data request: Suppose we examine the molecule OCC1OC(OCC2OC(O)C(O)C(O)C2O)C(O)C(O)C1O (stereo not given) ; what LC retention time value has been reported?
Data returned: 11.8

Data request: Suppose we examine the molecule `Cc1cc2nc3[nH]c(=O)[nH]c(=O)c3nc2cc1C` ; what LC retention time value has been reported?
Data returned: 1.32

Data request: Suppose we examine the molecule CC(=O)NC(C)C(=O)O (stereo not given) ; what LC retention time value has been reported?
Data returned: 4.75
